Let's look at some variants and their measured abundance fitness.
B1: Peroxisome proliferator-activated receptor delta, residues 71 to 145; numbered along this chain, Q03181 (parent)
chain: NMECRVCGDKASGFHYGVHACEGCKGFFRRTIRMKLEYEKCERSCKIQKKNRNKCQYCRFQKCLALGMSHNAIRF

# Variants of: B1
# EXPERIMENT SUMMARY: abundance fitness (aPCA) (normalised: wild type 0, dead -1); higher = more abundant; growth selection in yeast, the domain comes from the species named
# CONDITION NOTES: Homo sapiens
MEASURED QUANTITY: abundance fitness

    mutation_id  measured_quantity  reported_measurement
 0         Y57K  abundance fitness                -0.507
 1         K25I  abundance fitness                 0.061
 2         A11R  abundance fitness                -0.485
 3         E42S  abundance fitness                -0.117
 4         F75I  abundance fitness                -0.023
 5         K10H  abundance fitness                -0.027
 6          V6H  abundance fitness                -0.914
 7          C7L  abundance fitness                -0.782
 8         K35W  abundance fitness                -0.535
 9         G26A  abundance fitness                 0.068
10         A65E  abundance fitness                -0.003
11          D9I  abundance fitness                -0.345
12         R33W  abundance fitness                -0.108
13         C45P  abundance fitness                -0.876
14         K10Q  abundance fitness                  0.08
15         R43N  abundance fitness                 0.223
16         L66F  abundance fitness                -0.438
17         G67C  abundance fitness                -0.469
18         K10P  abundance fitness                -0.268
19         E22N  abundance fitness                -0.207
20         C63D  abundance fitness                -0.635
21         N51F  abundance fitness                -0.028
